These measurements were taken from the RepoRT retention time repository (doi:10.1007/s00216-021-03828-0).

experiment: RP, Merck Supelco Ascentis Express C18, 100 × 2.1 mm, 2 µm, 40 °C, 0.4 mL/min, estimated dead time 0.55 min; A: water + 0.1% formic acid, pH 3; B: acetonitrile + 0.1% formic acid, pH 3; gradient (min/%B) 0/5 2/5 17/99.9 20/99.9; details: stereoisomer not certain
Observation Type: LC retention time (min)
Enter your answer as a number in min; do not include the unit.

*Q* Fill in the blank: the reported LC retention time of CCCCCCC=CCCCCCCCC(=O)[O-] [PALMITOLEATE] is ____.
*A* 14.5

*Q* # input compound: CC(O)(CC(=O)O)C(=O)O (stereo not drawn) [CITRAMALATE] ; wanted: its LC retention time
*A* 0.717

*Q* Requested read-out: LC retention time. Entry: NCC(=O)CCC(=O)O [5-AMINOLEVULINATE]
*A* 0.74

---

experiment: RP, Merck Supelco Ascentis Express C18, 100 × 2.1 mm, 2 µm, 40 °C, 0.25 mL/min, estimated dead time 0.88 min; A: water + 0.1% formic acid, pH 3; B: acetonitrile + 0.1% formic acid, pH 3; gradient (min/%B) 0/5 2/5 17/99.9 20/99.9; conditions: stereoisomer not certain
Here, each record is paired with measured log10 of LC retention time data.
Please keep in mind that the values are log10 of LC retention time expressed in min.

Some entries whose results are on file:
O=C(O)c1cccc(O)c1O [2,3-DIHYDROXYBENZOATE]; 0.39
NC(Cc1cc(I)c(Oc2cc(I)c(O)c(I)c2)c(I)c1)C(=O)O (stereo not drawn); 0.93
O=C(O)Cc1c[nH]c2ccc(O)cc12 [5-HYDROXYINDOLEACETATE]; 0.63
O=c1[nH]cnc2c1ncn2C1OC(CO)C(O)C1O (stereo not drawn); 0.05
O=C([O-])Cc1ccccc1 [PHENYLACETATE]; 0.54
O=C(O)Cc1cc(O)ccc1O [HOMOGENTISATE]; 0.28

*Q* Can you look up the measured log10 of LC retention time of O=C(O)Cc1c[nH]c2ccccc12 [INDOLE-3-ACETATE] for me?
*A* 0.82

*Q* Using the record for CCC=CCC=CCC=CCC=CCC=CCC=CCCC(=O)O [DOCOSAHEXAENOATE] , report its log10 of LC retention time.
*A* 1.20

*Q* What value of log10 of LC retention time has been recorded for this entry: CC1(O)CCOC(=O)C1 (stereo not drawn)
*A* 0.16

---

assay: RP, Merck Supelco Ascentis Express C18, 100 × 2.1 mm, 2 µm, 40 °C, 0.35 mL/min, estimated dead time 0.63 min; A: water + 0.1% formic acid, pH 3; B: acetonitrile + 0.1% formic acid, pH 3; gradient (min/%B) 0/5 2/5 17/99.9 20/99.9; settings: stereoisomer not certain
Quick reference for LC retention time among some molecules
Your answer is read as min, so omit the unit and give the number.

See these solved cases before continuing.
O=C(O)Cc1c[nH]c2ccccc12 [INDOLE-3-ACETATE]; 5.84
CC(CCC(=O)O)C1CCC2C3C(O)CC4CC(O)CCC4(C)C3CCC12C (centres undefined) [URSODEOXYCHOLATE]; 10.8
N[C@@H](Cc1cc(I)c(Oc2ccc(O)cc2)c(I)c1)C(=O)O; 6.19

Now, please, on to the next molecule.
*Q* Value lookup for LC retention time; key = CC12CCC(=O)C=C1CCC1C2C(=O)CC2(C)C1CCC2(O)C(=O)CO (centres undefined)
*A* 6.91
